assay: Half life in heparinised human plasma by LC-MS/MS analysis; assay type: ADME, cell-free
The reader will find reported half-life values listed item by item below.
REPORTED_PROPERTY: half-life

smiles_entry=COC(=O)c1cccc(NC(=O)C2(CN)CCN(c3ncnc4[nH]c5c(c34)CCCC5)CC2)c1 meas_value="27 min"
smiles_entry=COC(=O)Cc1cccc(NC(=O)C2(N(C)C)CCN(c3ncnc4[nH]c5c(c34)CCCC5)CC2)c1 meas_value="< 10 min"
smiles_entry=COC(=O)Cc1cccc(NC(=O)C2(CN)CCN(c3ncnc4[nH]c5c(c34)CCC5)CC2)c1 meas_value="< 10 min"
smiles_entry=COC(=O)Cc1cccc(NC(=O)C2(CN)CCN(c3ncnc4[nH]c5c(c34)CCCC5)CC2)c1 meas_value="< 10 min"
smiles_entry=COC(=O)Cc1cccc(NC(=O)C2(CN)CCN(c3ncnc4[nH]c5c(c34)CC(F)(F)CC5)CC2)c1 meas_value="< 10 min"
smiles_entry=COC(=O)c1cccc(NC(=O)C2(N(C)C)CCN(c3ncnc4[nH]c5c(c34)CCCC5)CC2)c1 meas_value="> 60 min"
smiles_entry=COC(=O)Cc1cccc(NC(=O)C2(N(C)C)CCN(c3ncnc4[nH]c5c(c34)CC(F)(F)CC5)CC2)c1 meas_value="< 10 min"
smiles_entry=COC(=O)Cc1cccc(NC(=O)C2(N(C)C)CCN(c3ncnc4[nH]c5c(c34)CCC5)CC2)c1 meas_value="< 10 min"
